Reference for the values: PubChem BioAssay (Tox21)

biological target: Glucocorticoid receptor (Homo sapiens); assay: qHTS assay to identify small molecule agonists of the glucocorticoid receptor (GR) signaling pathway (AID 720691); settings: GR-bla HeLa, beta-lactamase reporter ratio, 18 h
Inconclusive results are not listed. Active and inactive are the calls of the source. The call rests on the fitted dose curve; in most records, active means well fitted activation curve with a large enough effect in the signal ratio in the repeat runs (not every such curve was filed as active); inconclusive means weak or mixed curves, or effect the other way; inactive means no such curve, though single readings can be large or run the other way; the % refers to the signal ratio.

# Compound, outcome
rows = [
    ("CN1CCN2c3ncccc3Cc3ccccc3C2C1 (stereo not drawn)", "inactive"),
    ("COc1cc(C)c(/C=C/C(C)=C/C=C/C(C)=C/C(=O)O)c(C)c1C", "inactive"),
    ("O=C(O)c1nc(=O)[nH]c(=O)[nH]1", "inactive"),
]

* * *

test: qHTS assay for identifying genotoxic compounds that show differential cytotoxicity against isogenic chicken DT40 cell lines with known DNA damage response pathways - Rad54/Ku70 mutant cell line (AID 743015); conditions: DT40 Rad54/Ku70 mutant viability, CellTiter-Glo, 40 h; series mostly up to 66.8 µM; further: nearly all actives have a fitted effect of over 60% in size
Records with an inconclusive call do not appear. Activity calls are given as the source filed them. The call rests on the fitted dose curve; in most records, active means well fitted cell-killing curve with a large enough effect in the repeat runs; inconclusive means weak or mixed curves; inactive means no such curve, though single readings can be large or run the other way.
API: response.call in active, inactive

# Compound, Label Value
data = [
    ("Cc1cccc(C)c1N(CCCc1cccnc1)C(=O)C(C)N (centres undefined)", "inactive"),
]

What call does the record list for O=C(CCCN1CCC(n2c(=S)[nH]c3ccccc32)CC1)c1ccc(F)cc1 ?
active

Answer briefly: the call reported for CC(=O)OC[C@H]1O[C@@H](O[C@H]2[C@H](O)[C@@H](OC(=O)c3ccccc3C(=O)O)[C@H](O)O[C@@H]2COC(C)=O)[C@H](O)[C@@H](OC(=O)c2ccccc2C(=O)O)[C@@H]1O in this assay.
inactive

Per the records of this test, what outcome belongs to CCCOc1ccc2nc(NC(=O)OC)sc2c1 ?
active

Answer briefly: the call reported for CC(O)CN(C)C (centres undefined) in this assay.
inactive

Which outcome did this test record for the compound COc1cc(Br)c(C[N+]2(CCOCCC3CCC4CC3C4(C)C)CCOCC2)cc1OC (centres undefined) ?
active

Could you please tell me the result logged for CC1(C)S[C@@H]2[C@H](NC(=O)C3(N)CCCCC3)C(=O)N2[C@H]1C(=O)O in this assay?
inactive

For COc1cc(S(C)=O)ccc1-c1nc2ncccc2[nH]1 (centres undefined) , which call appears in the assay record?
inactive

Hey, what did the test say about COc1cc(-c2ccc(-[n+]3nc(-c4ccccc4)nn3-c3ccc([N+](=O)[O-])cc3)c(OC)c2)ccc1-[n+]1nc(-c2ccccc2)nn1-c1ccc([N+](=O)[O-])cc1 ?
active
